B1: EHEE_rd2_0601 (parent)
chain: TYTYKLTDEEASRRAEDEWRNRGYDVRVRNNNGTWEVEVR

variants of: B1; test: folding stability dG (cDNA display proteolysis); higher = more stable; conditions: PBS, room temperature
Property name: folding stability dG (kcal/mol)

1. T34R = 0.865
2. E38G = -0.74
3. E16L = 1.54
4. E36R = -0.245
5. E36Y = 1.98
6. R22A = 1.22
7. N31W = 1.02
8. D17I = 2.17
9. R29L = 1.4
10. A11V = 0.486
11. R22K = 1.45
12. R13K = 1.45
13. Y2P = 0.083
14. T34S = 1.28
15. R14T = 0.957
16. L6R = -0.655
17. T34F = 1.62
18. Y24M = 0.281
19. K5V = 1.97
20. S12A = 3.22
21. D17S = 1.88
22. R13H = 0.979
23. A15L = 2.46
24. Y2H = 1.37
25. N30E = 1.7
26. E9F = 1.29
27. R40H = 1.1
28. N31I = 1.76
29. E36F = 1.75
30. E36M = 1.19
31. S12V = 2.17
32. Y4K = -0.308
33. N30R = 1.23
34. N21K = 1.97
35. A15Y = 1.4
36. G33E = 0.259
37. E38H = 1.02
38. R14M = 1.2
39. K5Y = 2.64
40. R29S = 1.55
41. N30I = 1.35
42. G23C = 1.14
43. V28W = 0.13
44. E36V = 1.58
45. A11H = 0.875
46. G23K = -0.509
47. G23M = -0.97
48. R20N = 0.373
49. Y4V = 0.852
50. N31R = 1.34
51. T3D = 0.044
52. N21I = 1.22
53. E9G = 0.631
54. R14E = 1
55. R13E = 0.263
56. R14L = 1.33
57. L6S = 1.23
58. N30G = 0.639
59. G33N = 0.553
60. Y4D = -0.109
61. A11R = 0.546
62. N31V = 1.83
63. W19F = 1.04
64. T7N = 1.62
65. E9V = 0.885
66. N30M = 1.4
67. V37T = -0.63
68. G33L = -0.48
69. R40A = 1.03
70. N31L = 1.51
71. R14K = 1.53
72. N30L = 1.6
73. T1L = 1.37
74. R29C = 1.06
75. V37A = -0.419
76. N30Q = 1.51
77. Y4T = -0.316
78. A15V = 2.21
79. D8E = 0.662
80. R29D = 0.413
81. A15I = 2.2
82. G33S = 0.025
83. V28Q = -0.695
84. S12T = 1.51
85. R29Y = 1.74
86. V37F = 0.362
87. Y24W = 0.791
88. Y24L = 0.28
89. T7K = 1.79
90. E9N = 0.05
91. T34L = 1.48
